These entries and their values trace back to patent US10316017B2.

System: TNFα production in LPS-stimulated human monocytes
Assay: Cot Monocyte TNFα Cell Based Assay
Conditions: Homo sapiens, Monocyte, LPS-stimulated human monocytes, TNFα TR-FRET; read-out: EC50 TNF
Experimental: Example 60: Cot Monocyte TNFα Cell Based Assay The cell suspension was then plated at a density of 5,000 cells/well onto black 384 well Greiner clear bottom plates. […] Cells were then spun out of the media and 5 ul of sample were taken and analyzed for total TNFα content using the TR-FRET Human TNFα detection system (CisBio). […]
EC50 listing for selected compounds.
Respond with the bare value in nM.

INSERT INTO results (compound, recorded_endpoint, quantitative_readout) VALUES
  ('Cc1c([C@H](Nc2cc(Cl)c3ncc(C#N)c(NCC(C)(C)C)c3c2)c2cn(C3(C(F)F)CC3)nn2)cccc1-n1cnnn1 [Example 1062]', 'EC50', 70);

Bench note: what EC50 did CC(C)(C)CNc1c(C#N)cnc2c(C#N)cc(N[C@H](c3cn(C4(C(N)=O)CC4)nn3)c3ccccc3Cl)cc12 [Example 957] show? 170

Next entry: [2H][C@](Nc1cc(C#N)c2ncc(C#N)c(NC3CCCC3(C)C)c2c1)(c1ccc(F)cc1)c1cn(C2(C(F)(F)F)CC2)nn1 (stereo partly shown) [Example 1018] 326

Try the compound COC(=O)c1cc([C@H](Nc2cc(Cl)c3ncc(C#N)c(NCC(C)(C)C)c3c2)c2cn(C3(C(F)(F)F)CC3)nn2)ccc1F [Example 1088] 934

Then what about the compound CC(C)(C)CNc1c(C#N)cnc2c(C#N)cc(N[C@@H](c3ccc(F)cc3)c3cn(C4(CO)CC4)nn3)cc12 [Example 979] ? 103

---

target: human Cot catalytic domain (30-397 amino acids) (Homo sapiens, UniProt P41279); construct: Purified recombinant human Cot catalytic domain (30-397 amino acids) was purchased from Cama Biosciences; purchased Cama Biosciences (so in the source); experiment: High Throughput Cot Biochemical Assay (KinEASE TR-FRET); details: Cot biochemical HTRF (KinEASE TR-FRET) assay; read-out: IC50 HTRF
Sequence (P41279 30-397): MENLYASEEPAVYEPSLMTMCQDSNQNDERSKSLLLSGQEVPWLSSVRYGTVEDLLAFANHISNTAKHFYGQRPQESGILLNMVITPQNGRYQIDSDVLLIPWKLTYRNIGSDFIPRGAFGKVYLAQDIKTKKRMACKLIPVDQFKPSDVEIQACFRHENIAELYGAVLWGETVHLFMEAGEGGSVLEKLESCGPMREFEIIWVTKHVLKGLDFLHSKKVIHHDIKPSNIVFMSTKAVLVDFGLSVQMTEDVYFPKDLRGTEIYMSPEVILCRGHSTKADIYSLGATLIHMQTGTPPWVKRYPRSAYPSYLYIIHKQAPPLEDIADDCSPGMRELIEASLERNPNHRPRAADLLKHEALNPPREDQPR
As shown below, each of these molecules has a reported log10(IC50) value.
Give log10 of IC50, with IC50 taken in nM.

Consider the worked cases shown below.
INSERT INTO assay_data (line_notation, quantitative_readout) VALUES
  ('CC(C)(C)N1CCC(n2cc([C@@H](Nc3cc(Cl)c4ncc(C#N)c(Nc5cccc(Cl)c5F)c4c3)c3ccc(Cl)cc3)nn2)CC1', 1.34),
  ('CC(C)n1cc([C@@H](Nc2cc(Cl)c3ncc(C#N)c(Nc4cnc(F)c(F)c4)c3c2)c2ccc(F)cc2)nn1', 1.23);

Look at this molecule and give its reported log10(IC50). `N#Cc1cnc2c(Cl)cc(N[C@@H](c3ccccc3)c3cn(CCO)nn3)cc2c1Nc1ccc(F)c(Cl)c1` 0.85

Next record, please: `N#Cc1cnc2c(Cl)cc(N[C@@H](c3ccc(Cl)cc3)c3c[nH]nn3)cc2c1Nc1ccc(O)c(Cl)c1` 2.09

---

test system: TNFα production in LPS-stimulated human monocytes; assay: Cot Monocyte TNFα Cell Based Assay; details: Homo sapiens, Monocyte, LPS-stimulated human monocytes, TNFα TR-FRET; read-out: EC50 TNF
Below, each of the molecules is paired with its reported EC50 value.
Provide the reading as a plain figure in µM.

Recorded results for 3 molecules are shown here.
INSERT INTO measurements (molecule, system_name, recorded_endpoint, readout_units, quantitative_readout) VALUES
  ('[2H][C@@](Nc1cc(C(C)=O)c2ncc(C#N)c(N[C@H](CCC#N)c3ccccc3)c2c1)(c1cn(C2CC2)nn1)c1ccccc1Cl [Example 939]', 'TNFα production in LPS-stimulated human monocytes', 'EC50', 'µM', 0.092),
  ('Cc1c(C#N)cccc1[C@H](Nc1cc(C#N)c2ncc(C#N)c(NCC(C)(C)C)c2c1)c1cn(C(CF)CF)nn1 [Example 1149]', 'TNFα production in LPS-stimulated human monocytes', 'EC50', 'µM', 0.045),
  ('CC(C)(C)CNc1c(C#N)cnc2c(C#N)cc(N[C@@H](c3ccc(F)cc3)c3cn(C4(c5cccnc5)CC4)nn3)cc12 [Example 974]', 'TNFα production in LPS-stimulated human monocytes', 'EC50', 'µM', 0.046);

Here is another molecule to look at.
Returns the measured EC50 for the input molecule. Input: CC(C)(C)CNc1c(C#N)cnc2c(Cl)cc(N[C@H](c3cn(C4CC4)nn3)c3cccc4ccccc34)cc12 [Example 1003] 0.227

---

pIC50 reference
target: human Cot catalytic domain (30-397 amino acids) (Homo sapiens, UniProt P41279); construct: Purified recombinant human Cot catalytic domain (30-397 amino acids) was purchased from Cama Biosciences; purchased Cama Biosciences (so in the source); experiment: High Throughput Cot Biochemical Assay (KinEASE TR-FRET); settings: Cot KinEASE TR-FRET, 400 μM ATP; read-out: IC50 HTRF
A value of pIC50 is the negative decimal logarithm of a concentration given in moles per litre.

Observe how each entry below is paired with its result.
INSERT INTO measurements (molecule, quantitative_readout) VALUES
  ('CC(C)(C)CNc1c(C#N)cnc2c(C#N)cc(N[C@@H](c3ccccc3)c3cn(C4(C(F)F)CC4)nn3)cc12 [Example 1064]', 7.92),
  ('Cc1c([C@H](Nc2cc(C#N)c3ncc(C#N)c(NCC(C)(C)C)c3c2)c2cn(C3(C(F)F)CC3)nn2)cccc1-n1cnnn1 [Example 1082]', 8.70),
  ('N#Cc1cnc2c(Cl)cc(NC(c3ccc(F)c(F)c3)c3cn(C4CCNCC4)nn3)cc2c1Nc1ccc(F)c(Cl)c1 (stereo not drawn) [Example 900]', 7.85),
  ('C#CC(c1ccc(Cl)cc1)N(c1cc(Cl)c2ncc(C#N)c(Nc3cncc(Cl)c3)c2c1)C(c1ccc(Cl)cc1)c1cn(C2CCN(C(C)(C)C)CC2)nn1 (stereo not drawn) [Example 725]', 6.47);

If you can, please state the reported pIC50 value of N#Cc1cnc2c(Cl)cc(NC(c3ccc(Cl)cc3)c3cn([C@H]4CCN(C(=O)OCc5ccccc5)C4)nn3)cc2c1Nc1ccc(F)c(Cl)c1 (stereo partly drawn) [Example 878] . 5.11

---

Listing of entries alongside the reported IC50.
biological target: human Cot catalytic domain (30-397 amino acids) (Homo sapiens); construct: Purified recombinant human Cot catalytic domain (30-397 amino acids) was purchased from Cama Biosciences; purchased Cama Biosciences (so in the source); assay: High Throughput Cot Biochemical Assay (KinEASE TR-FRET); conditions: Cot KinEASE TR-FRET (HTRF) biochemical assay, 400 μM ATP; read-out: IC50 HTRF
Field: numeric (nM). Do not append units.

Reference set, count: 2
INSERT INTO measurements (line_notation, quantitative_readout) VALUES
  ('[2H][C@@](Nc1cc(C#N)c2ncc(C#N)c(Nc3ccc(F)c(Cl)c3)c2c1)(c1cn(C2CC2)nn1)c1ccccc1Cl', 4),
  ('[2H][C@](Nc1cc(Cl)c2ncc(C#N)c(Nc3ccc(F)c(Cl)c3)c2c1)(c1ccc(F)cc1)c1cn(CC(=O)O)nn1', 14);

Now consider the entry below.
What value of IC50 has been reported for the following compound? `N#CCC[C@@H](Nc1c(C#N)cnc2c(Cl)cc(N[C@H](c3cn(CC#N)nn3)c3ccccc3Cl)cc12)c1ccccc1` 5

---

As shown below, each of these compounds has a reported pIC50 value.
biological target: human Cot catalytic domain (30-397 amino acids) (Homo sapiens, UniProt P41279); construct: Purified recombinant human Cot catalytic domain (30-397 amino acids) was purchased from Cama Biosciences; purchased Cama Biosciences (so in the source); test: High Throughput Cot Biochemical Assay (KinEASE TR-FRET); conditions: Cot KinEASE TR-FRET, 400 μM ATP; read-out: IC50 HTRF
// field semantics: pIC50 = negative decimal log of concentration (mol/L)

Solved cases (3 shown):
INSERT INTO measurements (compound, quantitative_readout) VALUES
  ('N#Cc1cnc2c(Cl)cc(NC(c3ccc(F)cc3)c3cnccn3)cc2c1Nc1ccc(F)c(Cl)c1 (stereo not shown) [Example 801]', 5.97),
  ('N#Cc1cnc2c(Cl)cc(NC(c3ccc(Cl)cc3)c3cn([C@H]4CCNC4)nn3)cc2c1Nc1ccc(F)c(Cl)c1 (stereo partly shown) [Example 880]', 7.17),
  ('Cc1snnc1C(Nc1cc(Cl)c2ncc(C#N)c(Nc3ccc(F)c(Cl)c3)c2c1)c1ccc(F)cc1 (stereo not shown) [Example 718]', 5.46);

Which pIC50 value belongs to N#Cc1cnc2c(Cl)cc(NC(c3cccc(F)c3)c3cn(C4CCNCC4)nn3)cc2c1Nc1ccc(F)c(Cl)c1 (stereo not shown) [Example 906] ? 8.10

Same again, this time with CC(C)(C)CNc1c(C#N)cnc2c(Br)cc(N[C@H](c3cn(Cc4c(F)cccc4F)nn3)c3ccccc3Cl)cc12 [Example 1052] 6.72

Now consider Cc1c(C#N)cccc1[C@H](Nc1cc(C#N)c2ncc(C#N)c(NCC(C)(C)C(F)(F)F)c2c1)c1cn(C23CC(C2)C3)nn1 [Example 1151] and answer again. 8.70
